# SYSTEM_UNDER_TEST: rat MCH-1 (Rattus norvegicus, UniProt P97639)
# Sequence (P97639 whole entry): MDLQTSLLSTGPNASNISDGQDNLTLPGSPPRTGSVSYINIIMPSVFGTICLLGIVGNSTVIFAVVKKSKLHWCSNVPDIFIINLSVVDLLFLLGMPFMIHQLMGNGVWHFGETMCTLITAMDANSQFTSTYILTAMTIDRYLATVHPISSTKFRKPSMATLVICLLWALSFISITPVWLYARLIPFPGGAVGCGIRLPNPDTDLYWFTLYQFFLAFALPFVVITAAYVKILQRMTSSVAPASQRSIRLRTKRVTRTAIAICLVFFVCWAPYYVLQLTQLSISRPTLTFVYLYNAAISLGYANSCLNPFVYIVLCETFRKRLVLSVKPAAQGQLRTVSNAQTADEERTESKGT
# PROTOCOL_DETAILS: Radioligand binding assay at cloned rat MCH1 receptor ([3H] Compound A)
# Parameters: host or cells: Peak rapid 293 (Peakr293) cells, transient calcium phosphate transfection, membranes
# CONDITION_PARAMETERS: cloned rat MCH1 receptor, membranes from Peakr293 cells, 0.08 nM [3H] Compound A; read-out: Ki (nM) rMCH1
QUANTITY_KIND: Ki (nM)

Example cases with answers are listed next.
COMPOUND	QUANTITY_KIND	REPORTED_VALUE
CC(C)C(=O)Nc1cccc(C2CCN(Cc3cn(S(=O)(=O)c4ccccc4)c4ccccc34)CC2)c1	Ki	262
CC(C)C(=O)Nc1cccc(C2CCN(Cc3ccc4c(c3)OCCCO4)CC2)c1	Ki	116
CC(C)C(=O)Nc1cccc(C2CCN(Cc3ccc4c(ccn4-c4ccc(F)cc4)c3)CC2)c1	Ki	7.8

[I] CC(C)C(=O)Nc1cccc(C2CCN(CCCC(Oc3ccc(Cl)cc3)c3ccc(Cl)cc3)CC2)c1 (stereo not shown)
[II] Cc1cccc(OC(CCN2CCC(c3cccc(NC(=O)C(C)C)c3)CC2)c2ccc(Br)cc2)c1 (stereo not shown)
[ask] # min-compare on Ki between I and II Which one? Tell me its label.
[reply] II

[1] CC(C)C(=O)Nc1cccc(C2CCN(CC[C@H](NC(=O)c3ccc(F)cc3F)c3ccccc3)CC2)c1
[2] CC(C)C(=O)Nc1cccc(C2CCN(CCC(Oc3ccc(Br)cc3)c3ccc4c(c3)CCC4)CC2)c1 (stereo not shown)
[3] CC(C)C(=O)Nc1cccc(C2CCN(CCC(=O)c3ccc(Br)cc3)CC2)c1
[4] CC(=O)c1cccc(OCCCCCCN2CCC(c3cccc(NC(=O)C(C)C)c3)CC2)c1
[5] CC(C)C(=O)Nc1cccc(C2CCN(CCC(O)c3ccc(F)cc3)CC2)c1 (stereo not shown)
[ask] Order by Ki, ascending. Reply with the item labels sorted in the order that was asked for.
[reply] 2, 3, 1, 5, 4

[I] CCCc1nn(-c2ccccc2)cc1C(=O)N[C@@H](CCN1CCC(c2cccc(NC(=O)C(C)C)c2)CC1)c1ccccc1
[II] CC(C)C(=O)Nc1cccc(C2CCN(CCCCC3OCCO3)CC2)c1
[ask] # min-compare on Ki between I and II Which one? Tell me its label.
[reply] I
(I: 50.9 nM, II: 309 nM)

[I] CC(C)C(=O)Nc1cccc(C2CCN(CCCOC(=O)Cc3ccc(F)cc3)CC2)c1
[II] CC(=O)c1ccccc1OC(CCN1CCC(c2cccc(NC(=O)C(C)C)c2)CC1)c1ccc(Br)cc1 (stereo not shown)
[ask] # min-compare on Ki between I and II Which one? Tell me its label.
[reply] II

[P] CC(=O)c1cccc(OC(CCN2CCC(c3cccc(NC(=O)C(C)C)c3)CC2)c2ccc(Cl)cc2)c1 (stereo not shown)
[Q] CC(C)C(=O)Nc1cccc(C2CCN(CCCOc3ccc(Cl)cc3)CC2)c1
[ask] # min-compare on Ki between P and Q Which one? Tell me its label.
[reply] P
(P: 7.7 nM, Q: 15.4 nM)
